# target or test system: NR1/NR2B NMDAR (Homo sapiens, UniProt Q05586+Q13224)
# Construct: cDNAs for the GRIN1 (NM_007327), GRIN2A (NM_000833.3), GRIN2B (NM_000834.3) and Kir2.1 (NM_000891.2) proteins were purchased from GeneCopoeia; expressed in transfected cells; host or cells: HEK293 cells (ATCC) transduced with BacMam baculovirus (pFastBac-CMV-GW-DEST)
# Sequence (Q13224 27-1484, other chains not shown): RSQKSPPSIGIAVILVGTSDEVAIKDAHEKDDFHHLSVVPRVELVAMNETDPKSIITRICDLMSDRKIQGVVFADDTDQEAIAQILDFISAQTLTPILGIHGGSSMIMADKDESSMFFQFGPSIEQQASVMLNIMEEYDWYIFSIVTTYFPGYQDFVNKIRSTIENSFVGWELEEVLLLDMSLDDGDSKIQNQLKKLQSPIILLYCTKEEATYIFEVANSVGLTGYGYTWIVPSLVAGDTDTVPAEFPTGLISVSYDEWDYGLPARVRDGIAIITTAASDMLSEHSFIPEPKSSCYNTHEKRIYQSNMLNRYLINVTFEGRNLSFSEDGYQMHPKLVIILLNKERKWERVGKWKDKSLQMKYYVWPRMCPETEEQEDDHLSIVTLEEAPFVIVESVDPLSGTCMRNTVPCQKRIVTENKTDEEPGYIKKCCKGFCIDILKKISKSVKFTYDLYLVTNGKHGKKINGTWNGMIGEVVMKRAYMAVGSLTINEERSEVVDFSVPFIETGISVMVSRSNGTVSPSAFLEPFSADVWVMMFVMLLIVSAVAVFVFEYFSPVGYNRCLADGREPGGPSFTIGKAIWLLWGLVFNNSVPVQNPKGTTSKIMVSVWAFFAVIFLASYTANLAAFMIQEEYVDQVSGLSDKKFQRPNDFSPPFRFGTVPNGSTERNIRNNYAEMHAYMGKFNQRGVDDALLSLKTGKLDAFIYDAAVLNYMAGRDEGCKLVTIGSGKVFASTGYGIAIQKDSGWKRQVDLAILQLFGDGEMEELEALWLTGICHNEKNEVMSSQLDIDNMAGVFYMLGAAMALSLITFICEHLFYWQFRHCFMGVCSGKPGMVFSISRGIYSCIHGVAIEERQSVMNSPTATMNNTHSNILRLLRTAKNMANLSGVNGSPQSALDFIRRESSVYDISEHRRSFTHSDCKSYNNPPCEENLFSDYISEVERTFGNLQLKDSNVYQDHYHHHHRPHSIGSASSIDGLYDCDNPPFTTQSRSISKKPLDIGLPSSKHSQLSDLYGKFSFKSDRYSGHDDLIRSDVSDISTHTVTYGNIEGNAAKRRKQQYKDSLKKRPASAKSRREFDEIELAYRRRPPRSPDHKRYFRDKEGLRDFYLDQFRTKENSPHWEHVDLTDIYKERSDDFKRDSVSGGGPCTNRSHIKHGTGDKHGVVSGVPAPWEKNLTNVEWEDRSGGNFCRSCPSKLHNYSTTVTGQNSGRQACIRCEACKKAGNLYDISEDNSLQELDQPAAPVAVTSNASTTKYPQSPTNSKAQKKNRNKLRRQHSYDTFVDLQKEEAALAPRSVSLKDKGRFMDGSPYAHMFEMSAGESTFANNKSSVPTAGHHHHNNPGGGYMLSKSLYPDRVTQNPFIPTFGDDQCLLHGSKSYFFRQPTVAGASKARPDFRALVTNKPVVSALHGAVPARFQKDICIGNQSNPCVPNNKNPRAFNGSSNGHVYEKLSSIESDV
# assay: NMDAR-mediated calcium flux assay, NR1/NR2B-transduced HEK293 cells
# Assay type: cell-based
# experimental parameters: HEK293 cells after protection with MDL105,519; stimulation with EC80 of both ligands; mean, n > 3; n.d. = not detectable; read-out: IC50 NR2B
What IC50 was measured for each of the following?
Give bare numbers, in nM.

Solved cases below.
{"compound": "O=c1[nH]c2cc(Cl)ccc2c(O)c1-c1cccc(Oc2ccccc2)c1", "target or test system": "NR1/NR2B NMDAR (Homo sapiens, UniProt Q05586+Q13224)", "measure name": "IC50", "readout number": 1910}
{"compound": "C[C@@H](CN1CCC(Cc2ccccc2)CC1)[C@@H](O)c1ccc(O)cc1", "target or test system": "NR1/NR2B NMDAR (Homo sapiens, UniProt Q05586+Q13224)", "measure name": "IC50", "readout number": 100}

Please give IC50, item by item, for the list that follows.
1. C[C@H](NC(c1cccc2[nH]c(=O)c(=O)[nH]c12)P(=O)(O)O)c1ccc(Br)cc1 (stereo partly shown)
2. C[C@]12N[C@H](Cc3ccccc31)c1ccccc12

A.
1. 11900
2. 150

====

# target or test system: NR1/NR2A NMDAR (Homo sapiens, UniProt Q05586+Q12879)
# Construct: cDNAs for the GRIN1 (NM_007327), GRIN2A (NM_000833.3), GRIN2B (NM_000834.3) and Kir2.1 (NM_000891.2) proteins were purchased from GeneCopoeia; expressed in transfected cells; host or cells: HEK293 cells (ATCC) transduced with BacMam baculovirus (pFastBac-CMV-GW-DEST); virus made in Sf9
# Sequence (Q12879 23-1464, other chains not shown): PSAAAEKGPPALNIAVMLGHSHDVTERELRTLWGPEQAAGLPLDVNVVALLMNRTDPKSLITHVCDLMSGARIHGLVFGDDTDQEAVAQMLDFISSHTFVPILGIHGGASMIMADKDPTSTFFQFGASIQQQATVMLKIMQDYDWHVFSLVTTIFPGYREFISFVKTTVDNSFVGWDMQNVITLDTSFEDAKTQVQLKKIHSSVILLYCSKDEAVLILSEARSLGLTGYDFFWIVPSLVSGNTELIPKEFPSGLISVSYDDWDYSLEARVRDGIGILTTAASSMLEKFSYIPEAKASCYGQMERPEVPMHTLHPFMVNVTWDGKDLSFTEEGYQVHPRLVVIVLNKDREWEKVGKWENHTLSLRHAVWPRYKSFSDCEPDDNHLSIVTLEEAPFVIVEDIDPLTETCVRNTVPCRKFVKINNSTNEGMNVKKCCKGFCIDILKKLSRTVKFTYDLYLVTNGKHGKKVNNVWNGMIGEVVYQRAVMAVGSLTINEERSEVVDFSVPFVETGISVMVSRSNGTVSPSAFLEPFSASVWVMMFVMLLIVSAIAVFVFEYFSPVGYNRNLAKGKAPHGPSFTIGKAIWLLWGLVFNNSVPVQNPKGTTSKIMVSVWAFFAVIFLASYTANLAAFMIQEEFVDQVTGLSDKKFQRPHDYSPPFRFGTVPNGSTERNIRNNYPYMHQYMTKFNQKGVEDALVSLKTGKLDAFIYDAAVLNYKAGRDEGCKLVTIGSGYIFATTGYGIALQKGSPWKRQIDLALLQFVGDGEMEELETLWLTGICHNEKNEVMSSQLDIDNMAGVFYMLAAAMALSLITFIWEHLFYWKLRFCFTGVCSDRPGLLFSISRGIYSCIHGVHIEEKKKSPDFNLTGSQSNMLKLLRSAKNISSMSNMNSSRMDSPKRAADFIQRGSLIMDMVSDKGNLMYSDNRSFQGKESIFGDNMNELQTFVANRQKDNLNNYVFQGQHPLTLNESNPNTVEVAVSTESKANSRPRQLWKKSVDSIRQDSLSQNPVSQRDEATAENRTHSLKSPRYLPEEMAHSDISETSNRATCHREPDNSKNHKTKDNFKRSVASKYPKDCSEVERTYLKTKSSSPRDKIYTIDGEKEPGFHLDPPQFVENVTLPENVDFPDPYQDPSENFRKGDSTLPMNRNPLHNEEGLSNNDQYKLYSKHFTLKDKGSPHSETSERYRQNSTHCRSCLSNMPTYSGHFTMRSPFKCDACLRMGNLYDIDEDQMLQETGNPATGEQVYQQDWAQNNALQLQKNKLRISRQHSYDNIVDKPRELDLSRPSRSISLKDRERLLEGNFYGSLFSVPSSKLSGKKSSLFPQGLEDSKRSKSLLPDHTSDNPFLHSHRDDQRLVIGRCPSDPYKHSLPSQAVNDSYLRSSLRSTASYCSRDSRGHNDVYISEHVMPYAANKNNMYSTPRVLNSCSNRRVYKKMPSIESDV
# assay: NMDAR-mediated calcium flux assay, NR1/NR2A-transduced HEK293 cells
# Type: cell-based
measure name: IC50 (µM)
Numbers only, in µM.

Q. Which measured IC50 value corresponds to CNC1(c2ccccc2Cl)CCCCC1=O (stereo not shown) ?
A. 23

====

# target or test system: NR1/NR2A NMDAR (Homo sapiens, UniProt Q05586+Q12879)
# Construct: cDNAs for the GRIN1 (NM_007327), GRIN2A (NM_000833.3), GRIN2B (NM_000834.3) and Kir2.1 (NM_000891.2) proteins were purchased from GeneCopoeia; expressed in transfected cells; host or cells: HEK293 cells (ATCC) transduced with BacMam baculovirus (pFastBac-CMV-GW-DEST); virus made in Sf9
# assay: NMDAR-mediated calcium flux assay, NR1/NR2A-transduced HEK293 cells
# Format: cell-based
# experimental parameters: HEK293 cells after protection with MDL105,519; stimulation with EC80 of both ligands; mean, n > 3; n.d. = not detectable; read-out: IC50 NR2A
What IC50 was measured for each of the following?
Give bare numbers, in nM.

{"compound": "C[C@H](NC(c1cccc2[nH]c(=O)c(=O)[nH]c12)P(=O)(O)O)c1ccc(Br)cc1 (some centres unmarked)", "units of measure": "nM", "IC50": 2460}

Lab note: next compound to report on.
Q. Which measured IC50 value corresponds to `O=c1[nH]c2cc(Cl)ccc2c(O)c1-c1cccc(Oc2ccccc2)c1` ?
A. 1450

====

# target or test system: NR1/NR2B NMDAR (Homo sapiens, UniProt Q05586+Q13224)
# Construct: cDNAs for the GRIN1 (NM_007327), GRIN2A (NM_000833.3), GRIN2B (NM_000834.3) and Kir2.1 (NM_000891.2) proteins were purchased from GeneCopoeia; expressed in transfected cells; host or cells: HEK293 cells (ATCC) transduced with BacMam baculovirus (pFastBac-CMV-GW-DEST)
# assay: NMDAR-mediated calcium flux assay, NR1/NR2B-transduced HEK293 cells
# Format: cell-based
measure name: pIC50
Give bare numbers, as −log10 of the molar value.

Q. Which measured pIC50 value corresponds to CNC1(c2ccccc2Cl)CCCCC1=O (stereo not shown) ?
A. 4.92

====

# target or test system: NR1/NR2A NMDAR (Homo sapiens, UniProt Q05586+Q12879)
# Construct: cDNAs for the GRIN1 (NM_007327), GRIN2A (NM_000833.3), GRIN2B (NM_000834.3) and Kir2.1 (NM_000891.2) proteins were purchased from GeneCopoeia; expressed in transfected cells; host or cells: HEK293 cells (ATCC) transduced with BacMam baculovirus (pFastBac-CMV-GW-DEST); virus made in Sf9
# assay: NMDAR-mediated calcium flux assay, NR1/NR2A-transduced HEK293 cells
# Assay type: cell-based
# experimental parameters: MDL105,519-protected cells, at the EC50 of D-serine; read-out: IC50 for zinc, wildtype receptor
measure name: IC50

Q. Which measured IC50 value corresponds to [Zn+2] [zinc] ?
A. ~100 nM

Source: paper PMC5599507
